Target: T1, 4H908-bN
T1 chain: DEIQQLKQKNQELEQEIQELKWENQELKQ
Assay: two-hybrid library CCNG1;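 further: natural log of median RNA to DNA barcode read ratio; higher means stronger binding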
Assign interaction score to each entry below.
Output: the number by itself.

# binder DENQQLKQKIQELEQKNQELEWKIQELEQ [4H1845-bN] ; its interaction score = -0.834

# binder DKNQQLEQKIQELEQENQELKWEIQELKQ [4H3354-bN] ; its interaction score = -0.992

# binder DEIQQLKQKNQELEQEIQELKWENQELKQ [4H908-bN] ; its interaction score = -0.618

# binder DKNQQLEQEIQELKQKNQELEWEIQELEQ [4H3185-bN] ; its interaction score = -0.952

# binder DENQQLEQENQELKQKIQELKWEIQELEQ [4H1257-bN] ; its interaction score = -1.39

# binder DEIQQLKQEIQELEQKNQELEWKNQELKQ [4H568-bN] ; its interaction score = 1.08

# binder DKIQQLEQKNQELEQEIQELKWEIQELKQ [4H2442-bN] ; its interaction score = -0.788

# binder DEIQQLEQKNQELKQEIQELEWKIQELKQ [4H454-bN] ; its interaction score = 0.201

# binder DEIQQLEQENQELEQKNQELEWKIQELKQ [4H182-bN] ; its interaction score = -2.24
